Hello, the source for this data is patent US20260373266A1, in case you need it.

biological target: DCAF1 WD40 domain (residues 1077-1390) (Homo sapiens); construct: DCAF1 WD40 domain (residues 1077-1390); assay: DCAF1 binding assay by SPR (Biacore 8K+), DCAF1-3 KD; settings: 25 °C, read-out: DCAF1-3 SPR (KD)
Could you please report measured Kd for the items listed next?

Reported Kd, compound "NC[C@@H]1CCN(c2cccc(F)c2)C[C@H]1Nc1cc(N2CCCCC2)ccn1" : ____
10 to 100 µM

Reported Kd, compound "Cc1sc2c(c1C)C(c1ccc(Cl)cc1)=N[C@@H](CC(=O)NCCOCCOCCOCCOCCCc1ccc(C(=O)c3[nH]cc(C(=O)N[C@@H](CC(=O)N4CCN(C(=O)OCc5ccccc5)CC4)c4cccc(Cl)c4)c3-c3c(F)ccc(F)c3C)cc1)c1cnc(C)n1-2" : ____
< 10 µM

Reported Kd, compound "C[C@H]1CCCCN1c1ccnc(N2CC[C@@H]3[C@H]2CCCN3c2cccc(F)c2)c1" : ____
< 10 µM

Reported Kd, compound "NC(=O)C[C@H](NC(=O)c1c[nH]nc1-c1cccc2ccnn12)c1cccc(Cl)c1" : ____
> 200 µM

Reported Kd, compound "NC(=O)CCc1cccc(N2CCC[C@H]3[C@@H]2CCN3c2cc(N3CCCCC3)ccn2)c1" : ____
< 10 µM

Reported Kd, compound "c1cnc2c(N3CCC[C@@H](Nc4cc(N5CCOCC5)ccn4)C3)nccc2c1" : ____
100 to 200 µM

Reported Kd, compound "CN(C)CC[C@H](c1ccc(N2CCC[C@@H](Nc3cc(N4CCOCC4)ccn3)C2)cc1)c1ccccn1" : ____
> 200 µM

---

molecular target: DCAF1 WD40 domain (residues 1077-1390) (Homo sapiens, UniProt Q9Y4B6); construct: DCAF1 WD40 domain (residues 1077-1390); assay: DCAF1 binding assay by SPR (Biacore 8K+), DCAF1-3 KD; settings: 25 °C, read-out: DCAF1-3 SPR (KD)
Sequence (Q9Y4B6 1077-1390): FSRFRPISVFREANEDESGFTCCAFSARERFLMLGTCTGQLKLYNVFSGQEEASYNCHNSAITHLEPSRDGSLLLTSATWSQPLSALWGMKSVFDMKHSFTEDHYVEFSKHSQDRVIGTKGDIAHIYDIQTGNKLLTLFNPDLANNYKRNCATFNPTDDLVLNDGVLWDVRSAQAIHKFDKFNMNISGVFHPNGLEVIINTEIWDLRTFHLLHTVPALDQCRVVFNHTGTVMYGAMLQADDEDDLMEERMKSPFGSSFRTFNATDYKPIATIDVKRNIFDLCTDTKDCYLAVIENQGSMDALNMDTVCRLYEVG
Reported Property: Kd

Missing value: Kd, DCAF1 WD40 domain (residues 1077-1390) (Homo sapiens, UniProt Q9Y4B6), entry CCC(=O)N1C[C@H](c2ccc(Br)cc2)[C@@H]1C(=O)Nc1cccc2cccnc12 [I-518] . Fill in?
> 200 µM

Missing value: Kd, DCAF1 WD40 domain (residues 1077-1390) (Homo sapiens, UniProt Q9Y4B6), entry NC(=O)C[C@H](NC(=O)c1c[nH]nc1-c1cc(C(=O)O)ccc1F)c1cccc(Cl)c1 [I-523] . Fill in?
10 to 100 µM

Missing value: Kd, DCAF1 WD40 domain (residues 1077-1390) (Homo sapiens, UniProt Q9Y4B6), entry O=C(O)CCN(c1cc(N2CCOCC2)ccn1)[C@@H]1CCCN(c2cccc(F)c2)C1 [I-288] . Fill in?
> 200 µM

Missing value: Kd, DCAF1 WD40 domain (residues 1077-1390) (Homo sapiens, UniProt Q9Y4B6), entry O[C@@H]1CCCN(c2ccnc(N3CC[C@H]4[C@@H]3CCCN4c3cccc(F)c3)c2)C1 [I-799] . Fill in?
> 200 µM

Missing value: Kd, DCAF1 WD40 domain (residues 1077-1390) (Homo sapiens, UniProt Q9Y4B6), entry Cc1sc2c(c1C)C(c1ccc(Cl)cc1)=N[C@@H](CC(=O)NCCCCCCCCCCCCCCCCCC(=O)c1[nH]cc(C(=O)N[C@@H](CC(N)=O)c3cccc(Cl)c3)c1-c1ccccc1F)c1nnc(C)n1-2 [I-893] . Fill in?
> 200 µM

Missing value: Kd, DCAF1 WD40 domain (residues 1077-1390) (Homo sapiens, UniProt Q9Y4B6), entry C=CC(=O)NC1CCC(c2[nH]ncc2C(=O)N[C@H](CC(N)=O)c2cccc(Cl)c2)CC1 (some centres unmarked) [I-537] . Fill in?
10 to 100 µM

Missing value: Kd, DCAF1 WD40 domain (residues 1077-1390) (Homo sapiens, UniProt Q9Y4B6), entry c1ccc2c(N3CCC[C@@H](Nc4cc(N5CCOCC5)ccn4)C3)noc2c1 [I-73] . Fill in?
100 to 200 µM

Missing value: Kd, DCAF1 WD40 domain (residues 1077-1390) (Homo sapiens, UniProt Q9Y4B6), entry Nc1ncc(N[C@@H]2CCCN(c3cccc(F)c3)C2)cc1N1CCOCC1 [I-546] . Fill in?
< 10 µM

---

molecular target: DCAF1 WD40 domain (residues 1077-1390) (Homo sapiens, UniProt Q9Y4B6); construct: DCAF1 WD40 domain (residues 1077-1390); assay: DCAF1 binding assay by SPR (Biacore 8K+), DCAF1-3 KD; details: 25 °C, read-out: DCAF1-3 SPR (KD)
Could you please report measured Kd for the items listed next?

Missing value: Kd, DCAF1 WD40 domain (residues 1077-1390) (Homo sapiens, UniProt Q9Y4B6), entry Cc1sc2c(c1C)C(c1ccc(Cl)cc1)=N[C@@H](CC(=O)NCCOCCOCCOCCOCCOCCn1ncc(C(=O)N[C@@H](CC(N)=O)c3cccc(Cl)c3)c1-c1ccccc1F)c1nnc(C)n1-2 [I-487] . Fill in?
> 200 µM

Missing value: Kd, DCAF1 WD40 domain (residues 1077-1390) (Homo sapiens, UniProt Q9Y4B6), entry Fc1cccc(N2CCC[C@@H](n3ccc4c(N5CCOCC5)ncnc43)C2)c1 [I-59] . Fill in?
100 to 200 µM

Missing value: Kd, DCAF1 WD40 domain (residues 1077-1390) (Homo sapiens, UniProt Q9Y4B6), entry Fc1cccc(N2CCC[C@@H](Nc3cccc(N4CCOCC4)n3)C2)c1 [I-17] . Fill in?
100 to 200 µM

Missing value: Kd, DCAF1 WD40 domain (residues 1077-1390) (Homo sapiens, UniProt Q9Y4B6), entry NC(=O)C[C@H](NC(=O)c1nc(N)sc1-c1ccccc1F)c1cccc(Cl)c1 [I-565] . Fill in?
100 to 200 µM

Missing value: Kd, DCAF1 WD40 domain (residues 1077-1390) (Homo sapiens, UniProt Q9Y4B6), entry C=CC(=O)N1CCC(c2n[nH]cc2C(=O)N[C@@H](CC(N)=O)c2cccc(Cl)c2)C1 (some centres unmarked) [I-453] . Fill in?
> 200 µM

Missing value: Kd, DCAF1 WD40 domain (residues 1077-1390) (Homo sapiens, UniProt Q9Y4B6), entry Cc1c(F)ccc(F)c1-c1c(C(=O)N[C@@H](CC(N)=O)c2cccc(Cl)c2)c[nH]c1C#N [I-798] . Fill in?
< 10 µM

Missing value: Kd, DCAF1 WD40 domain (residues 1077-1390) (Homo sapiens, UniProt Q9Y4B6), entry Cc1cc(Cl)cc([C@H](CC(N)=O)NC(=O)c2cn[nH]c2-c2c(C)cccc2F)c1 [I-737] . Fill in?
> 200 µM

Missing value: Kd, DCAF1 WD40 domain (residues 1077-1390) (Homo sapiens, UniProt Q9Y4B6), entry C=CC(=O)NCC1CCN(c2ccnc(N3CC[C@H]4[C@@H]3CCCN4c3cccc(F)c3)c2)CC1 [I-671] . Fill in?
< 10 µM

Missing value: Kd, DCAF1 WD40 domain (residues 1077-1390) (Homo sapiens, UniProt Q9Y4B6), entry N#Cc1ccc(N2CCC[C@@H](Nc3cc(N4CCOCC4)ccn3)C2)cc1 [I-774] . Fill in?
> 200 µM

Missing value: Kd, DCAF1 WD40 domain (residues 1077-1390) (Homo sapiens, UniProt Q9Y4B6), entry c1cc(N2CCOCC2)cc(N[C@@H]2CCCN(c3ccc(C4CC4)cc3)C2)n1 [I-507] . Fill in?
> 200 µM

Missing value: Kd, DCAF1 WD40 domain (residues 1077-1390) (Homo sapiens, UniProt Q9Y4B6), entry Cc1cn2cc(N3CCC[C@@H](Nc4cc(N5CCOCC5)ccn4)C3)ccc2n1 [I-763] . Fill in?
10 to 100 µM

Missing value: Kd, DCAF1 WD40 domain (residues 1077-1390) (Homo sapiens, UniProt Q9Y4B6), entry Fc1cccc(N2CCC[C@@H](Nc3cc(N4CCCCCC4)ccn3)C2)c1 [I-597] . Fill in?
< 10 µM

Missing value: Kd, DCAF1 WD40 domain (residues 1077-1390) (Homo sapiens, UniProt Q9Y4B6), entry NC(=O)C[C@H](NC(=O)c1cn[nH]c1-c1cccnc1)c1cccc(Cl)c1 [I-127] . Fill in?
10 to 100 µM

Missing value: Kd, DCAF1 WD40 domain (residues 1077-1390) (Homo sapiens, UniProt Q9Y4B6), entry Cc1ccc(N2CCC[C@@H](Nc3cc(N4CCOCC4)ncn3)C2)cc1 [I-8] . Fill in?
100 to 200 µM

Missing value: Kd, DCAF1 WD40 domain (residues 1077-1390) (Homo sapiens, UniProt Q9Y4B6), entry Cc1nc(Nc2ncc(C(=O)Nc3c(C)cccc3Cl)s2)cc(N2CCC(OC3CCN(CCCCCCCC(=O)N4CCN(c5ccc6c(NCCN)nc(C7(c8ccc(Cl)cc8)CCCCC7)nc6c5)CC4)CC3)CC2)n1 [I-1053] . Fill in?
< 10 µM

Missing value: Kd, DCAF1 WD40 domain (residues 1077-1390) (Homo sapiens, UniProt Q9Y4B6), entry NC(=O)C[C@](CC1CC1)(NC(=O)c1c[nH]nc1-c1ccccc1F)c1cccc(Cl)c1 [I-255] . Fill in?
> 200 µM

Missing value: Kd, DCAF1 WD40 domain (residues 1077-1390) (Homo sapiens, UniProt Q9Y4B6), entry c1cc(N2CCOCC2)cc(N[C@@H]2CCCN(c3ccc4c(c3)CCC4)C2)n1 [I-508] . Fill in?
100 to 200 µM

Missing value: Kd, DCAF1 WD40 domain (residues 1077-1390) (Homo sapiens, UniProt Q9Y4B6), entry CNC(=O)C[C@H](NC(=O)c1cn[nH]c1-c1ccccc1F)c1cccc(Cl)c1 [I-79] . Fill in?
10 to 100 µM

Missing value: Kd, DCAF1 WD40 domain (residues 1077-1390) (Homo sapiens, UniProt Q9Y4B6), entry C=CC(=O)N1CCN(c2ccnc(N[C@@H]3CCCN(c4cccc(F)c4)C3)c2)CC1 [I-446] . Fill in?
> 200 µM

Missing value: Kd, DCAF1 WD40 domain (residues 1077-1390) (Homo sapiens, UniProt Q9Y4B6), entry c1cc2c(N3CCC[C@@H](Nc4cc(N5CCOCC5)ccn4)C3)nccc2cn1 [I-66] . Fill in?
100 to 200 µM

Missing value: Kd, DCAF1 WD40 domain (residues 1077-1390) (Homo sapiens, UniProt Q9Y4B6), entry CCc1cccc([C@@H](CC(N)=O)NC(=O)c2cn[nH]c2-c2ccccc2F)c1 [I-639] . Fill in?
100 to 200 µM

Missing value: Kd, DCAF1 WD40 domain (residues 1077-1390) (Homo sapiens, UniProt Q9Y4B6), entry Cc1c(F)ccc(F)c1-c1c(C(=O)N[C@@H](CC(N)=O)c2cccc(Cl)c2)c[nH]c1C(=O)c1ccccc1 [I-653] . Fill in?
< 10 µM

Missing value: Kd, DCAF1 WD40 domain (residues 1077-1390) (Homo sapiens, UniProt Q9Y4B6), entry Fc1cccc(N2CCC[C@H](Cc3cc(N4CCOCC4)[nH]n3)C2)c1 [I-632] . Fill in?
> 200 µM
